# STUDY SYSTEM: Drosophila OR98a (Drosophila melanogaster, UniProt Q9VAZ3)
# Construct: expressed in transfected cells
# Sequence (Q9VAZ3 whole entry): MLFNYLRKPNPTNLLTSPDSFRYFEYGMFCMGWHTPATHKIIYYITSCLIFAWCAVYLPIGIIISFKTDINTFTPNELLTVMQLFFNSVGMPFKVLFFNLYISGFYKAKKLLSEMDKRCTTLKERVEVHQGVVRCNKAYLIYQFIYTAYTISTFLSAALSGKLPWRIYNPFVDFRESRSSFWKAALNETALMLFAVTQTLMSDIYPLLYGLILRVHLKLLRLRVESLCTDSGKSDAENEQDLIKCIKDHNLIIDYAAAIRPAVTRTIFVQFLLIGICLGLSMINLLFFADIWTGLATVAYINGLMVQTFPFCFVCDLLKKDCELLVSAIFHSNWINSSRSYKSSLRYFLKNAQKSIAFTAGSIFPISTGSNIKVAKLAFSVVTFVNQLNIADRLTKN
# Sequence (Q9VNB5 whole entry partner): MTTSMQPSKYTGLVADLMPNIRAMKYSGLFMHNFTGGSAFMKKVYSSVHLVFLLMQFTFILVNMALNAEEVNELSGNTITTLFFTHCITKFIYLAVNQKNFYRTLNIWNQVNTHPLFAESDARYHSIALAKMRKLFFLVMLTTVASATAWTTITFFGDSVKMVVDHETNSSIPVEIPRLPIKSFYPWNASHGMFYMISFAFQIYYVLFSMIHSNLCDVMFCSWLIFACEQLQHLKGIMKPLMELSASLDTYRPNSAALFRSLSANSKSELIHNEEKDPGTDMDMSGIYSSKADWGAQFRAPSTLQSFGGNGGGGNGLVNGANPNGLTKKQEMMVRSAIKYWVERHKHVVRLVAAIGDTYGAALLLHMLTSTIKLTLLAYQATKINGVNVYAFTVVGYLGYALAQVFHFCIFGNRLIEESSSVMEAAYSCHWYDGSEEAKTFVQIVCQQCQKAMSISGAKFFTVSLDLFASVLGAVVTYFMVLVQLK
# ASSAY NOTES: Calcium ion fluorescence (GCaMP6) assay, OR98a stable HEK293 cell line;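 further: ligand concentrations in µM final VOC concentration in well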
# Assay type: cell-based
# CONDITION INFO: HEK293, read-out: Average response
Some molecules, each annotated with its measured activation at 100 µM.
READOUT TYPE: activation at 100 µM (%)

| MOLECULE | STUDY SYSTEM | RECORDED NUMBER |
| --- | --- | --- |
| Cc1ccc(C)c(C)c1 | Drosophila OR98a (Drosophila melanogaster, UniProt Q9VAZ3) | 5 |
| CCCCCC(O)CC (stereo not shown) | Drosophila OR98a (Drosophila melanogaster, UniProt Q9VAZ3) | 13 |
| CC(=O)OCCC(C)C [isopentyl acetate] | Drosophila OR98a (Drosophila melanogaster, UniProt Q9VAZ3) | 31 |
| CCCCCCCO | Drosophila OR98a (Drosophila melanogaster, UniProt Q9VAZ3) | 0 |
| CCCCCO | Drosophila OR98a (Drosophila melanogaster, UniProt Q9VAZ3) | 0 |
| Cc1ccc(C)cc1 | Drosophila OR98a (Drosophila melanogaster, UniProt Q9VAZ3) | 4 |
| CCCCCC(C)=O | Drosophila OR98a (Drosophila melanogaster, UniProt Q9VAZ3) | 11 |
| CC1=CCC2CC1C2(C)C (stereo not shown) | Drosophila OR98a (Drosophila melanogaster, UniProt Q9VAZ3) | 0 |
| OCCc1ccccc1 | Drosophila OR98a (Drosophila melanogaster, UniProt Q9VAZ3) | 12 |
| C=C1CC[C@H]2O[C@]2(C)CC[C@@H]2[C@@H]1CC2(C)C [(-)-caryophyllene oxide] | Drosophila OR98a (Drosophila melanogaster, UniProt Q9VAZ3) | 0 |
| Cc1ccccc1 | Drosophila OR98a (Drosophila melanogaster, UniProt Q9VAZ3) | 3.33 |
| Cc1cccc(C)c1 | Drosophila OR98a (Drosophila melanogaster, UniProt Q9VAZ3) | 2.54 |
| COc1cccc(OC)c1 | Drosophila OR98a (Drosophila melanogaster, UniProt Q9VAZ3) | 3.31 |
| CCCOC(C)=O [propyl acetate] | Drosophila OR98a (Drosophila melanogaster, UniProt Q9VAZ3) | 11 |
| CC/C=C\CCOC(C)=O [z3-hexenyl acetate] | Drosophila OR98a (Drosophila melanogaster, UniProt Q9VAZ3) | 10 |
| O=Cc1ccccc1 | Drosophila OR98a (Drosophila melanogaster, UniProt Q9VAZ3) | 4.43 |
| Cc1ccc(C(C)C)cc1 | Drosophila OR98a (Drosophila melanogaster, UniProt Q9VAZ3) | 3.65 |
| CCCCCCCCCCCCCC | Drosophila OR98a (Drosophila melanogaster, UniProt Q9VAZ3) | 10 |
| CC(=O)OCC(C)C [isobutyl acetate] | Drosophila OR98a (Drosophila melanogaster, UniProt Q9VAZ3) | 6.56 |
| CCCCCCCCC=O | Drosophila OR98a (Drosophila melanogaster, UniProt Q9VAZ3) | 5.5 |
| CCCCC(C)=O | Drosophila OR98a (Drosophila melanogaster, UniProt Q9VAZ3) | 3.5 |
| CCCC(=O)OCC [ethyl butyrate] | Drosophila OR98a (Drosophila melanogaster, UniProt Q9VAZ3) | 6.6 |
| C=C1CC/C=C(\C)CC[C@@H]2[C@@H]1CC2(C)C [(-)-trans-caryophyllene] | Drosophila OR98a (Drosophila melanogaster, UniProt Q9VAZ3) | 6 |
| CCCC(O)CC (stereo not shown) | Drosophila OR98a (Drosophila melanogaster, UniProt Q9VAZ3) | 1.15 |
| C=C1CCC2(C(C)C)CC12 (stereo not shown) | Drosophila OR98a (Drosophila melanogaster, UniProt Q9VAZ3) | 2 |
| CCCCCCCCCCC | Drosophila OR98a (Drosophila melanogaster, UniProt Q9VAZ3) | 8 |
| CCCCCC(=O)CC | Drosophila OR98a (Drosophila melanogaster, UniProt Q9VAZ3) | 16 |
| CC(=O)c1ccccc1 | Drosophila OR98a (Drosophila melanogaster, UniProt Q9VAZ3) | 0 |
